Molecular target: IMP-1 (Serratia marcescens, UniProt P52699)
Sequence (P52699 whole entry, looked up): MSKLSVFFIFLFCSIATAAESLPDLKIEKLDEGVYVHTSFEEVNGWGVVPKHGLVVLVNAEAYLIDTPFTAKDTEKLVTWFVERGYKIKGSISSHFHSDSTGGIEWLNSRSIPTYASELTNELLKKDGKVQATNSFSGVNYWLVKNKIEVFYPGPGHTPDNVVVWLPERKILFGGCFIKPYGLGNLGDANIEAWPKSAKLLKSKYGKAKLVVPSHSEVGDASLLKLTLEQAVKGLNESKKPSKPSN
Test: biochemical
Assay type: biochemical
Conditions: IMP-1 enzyme, CCF2-FA substrate; read-out: IMP-1 IC50
# reported pIC50; entries follow
Please keep in mind that pIC50 is minus log10 of the molar concentration; only the number is needed.

# example entries with known answers
[[record]]
molecule = "N=C(NC1CCNC1)c1ccc(-c2ccc(C(F)(F)F)c(S(N)(=O)=O)c2-c2nn[nH]n2)cc1 (stereo not shown) [Example 564]"
reported = 6.52

[[record]]
molecule = "NS(=O)(=O)c1c(C(F)(F)F)ccc(N2CCCC(CO)C2)c1-c1nnn[nH]1 (stereo not shown) [Example 659]"
reported = 7.44

[[record]]
molecule = "NS(=O)(=O)c1c(C2CC2)ccc(-c2cccc3ncccc23)c1-c1nn[nH]n1 [Example 529]"
reported = 8.20

[[record]]
molecule = "Cc1ccc(-c2ccc(C(F)(F)F)c(S(N)(=O)=O)c2-c2nnn[nH]2)c2[nH]c(N)nc12 [Example 568]"
reported = 8.93

[[record]]
molecule = "Nc1ccc(-c2ccc(CC[C@H]3CC[C@H](N)CC3)c(S(N)(=O)=O)c2-c2nnn[nH]2)cn1 [Example 577]"
reported = 7.53


In: pIC50 for NS(=O)(=O)c1c(C(F)(F)F)ccc([C@H]2CC[C@H](N[C@H]3CC[C@H]4CCN[C@H]4C3)CC2)c1-c1nnn[nH]1 [Example 679] ?
Out: 7.12

In: Next record, please: Nc1ccc(-c2ccc(CC3CCNCC3)c(S(N)(=O)=O)c2-c2nnn[nH]2)cn1 [Example 576]
Out: 6.78
